Tested on: rat liver ACAT (acylCoa:cholesterol acyltransferase)
EXPERIMENT NOTES: In vitro inhibition of ACAT activity, rat liver microsomal fraction
Type: biochemical
CONDITION SUMMARY: rat liver microsomes, concentration 2 μM, versus enzyme activity in 1% dimethylsulfoxide
METRIC NAME: Efficiency (%) liver (ACAT inhibition)

O=C(Nc1ccc(Oc2ccc([N+](=O)[O-])cc2)cc1)NC12CC3CC(CC(C3)C1)C2 43
O=C(Nc1ccc(Sc2ccc([N+](=O)[O-])cc2)cc1)Nc1cc(Cl)cc(Cl)c1 0
CC(C)c1cccc(C(C)C)c1NC(=O)Nc1ccc(Sc2ccc(N)cc2)cc1 56
Nc1ccc(Sc2ccc(NC(=O)Nc3ccc(F)cc3F)cc2)cc1 22
O=C(Nc1ccc(Sc2ccc([N+](=O)[O-])cc2)cc1)Nc1cccc(Cl)c1Cl 0
Cc1ccc(NC(=O)Nc2ccc(Oc3ccc([N+](=O)[O-])cc3)cc2)c(C)c1 0
O=C(Nc1ccc(Oc2ccc([N+](=O)[O-])cc2)cc1)Nc1cccnc1 0
O=C(Nc1ccc(Oc2ccc([N+](=O)[O-])cc2)cc1)Nc1c(Cl)cccc1Cl 20

---

Examples of molecules with documented Efficiency (%) mucosa (ACAT inhibition) follow.
System: rabbit intestinal mucosa ACAT (acylCoa:cholesterol acyltransferase)
EXPERIMENT NOTES: In vitro inhibition of ACAT activity, rabbit intestinal mucosa microsomal fraction
Format: biochemical
CONDITION SUMMARY: rabbit intestinal mucosa microsomes, concentration 2 μM, versus enzyme activity in 1% dimethylsulfoxide
METRIC NAME: Efficiency (%) mucosa (ACAT inhibition)

MOLECULE	METRIC NAME	EXPERIMENTAL VALUE
O=C(Nc1ccc(Sc2ccc([N+](=O)[O-])cc2)cc1)Nc1c(F)cccc1F [Example 29]	Efficiency (%) mucosa (ACAT inhibition)	25
O=C(Nc1ccc(Oc2ccc([N+](=O)[O-])cc2)cc1)Nc1cccc2ccccc12 [Example 21]	Efficiency (%) mucosa (ACAT inhibition)	22
O=C(Nc1ccc(Sc2ccc([N+](=O)[O-])cc2)cc1)Nc1ccccc1F [Example 25]	Efficiency (%) mucosa (ACAT inhibition)	23
O=C(Nc1ccc(Oc2ccc([N+](=O)[O-])cc2)cc1)Nc1ccccn1 [Example 18]	Efficiency (%) mucosa (ACAT inhibition)	34
O=C(Nc1ccc(Sc2ccc([N+](=O)[O-])cc2)cc1)Nc1cccc2ccccc12 [Example 49]	Efficiency (%) mucosa (ACAT inhibition)	36
O=C(Nc1ccc(F)cc1)Nc1ccc(Sc2ccc([N+](=O)[O-])cc2)cc1 [Example 26]	Efficiency (%) mucosa (ACAT inhibition)	27
O=C(Nc1ccc(Oc2ccc([N+](=O)[O-])cc2)cc1)Nc1cccnc1 [Example 19]	Efficiency (%) mucosa (ACAT inhibition)	0
O=C(Nc1ccc(Sc2ccc([N+](=O)[O-])cc2)cc1)Nc1ccc2ccccc2c1 [Example 50]	Efficiency (%) mucosa (ACAT inhibition)	31

---

Tested on: rabbit intestinal mucosa ACAT (acylCoa:cholesterol acyltransferase)
EXPERIMENT NOTES: In vitro inhibition of ACAT activity, rabbit intestinal mucosa microsomal fraction
Format: biochemical
CONDITION SUMMARY: rabbit intestinal mucosa microsomes, concentration 2 μM, versus enzyme activity in 1% dimethylsulfoxide
Efficiency (%) mucosa (ACAT inhibition) overview
METRIC NAME: Efficiency (%) mucosa (ACAT inhibition)

MOLECULE	SYSTEM UNDER TEST	METRIC NAME	UNITS OF MEASURE	EXPERIMENTAL VALUE
O=C(Nc1ccc(Oc2ccc([N+](=O)[O-])cc2)cc1)Nc1cccc(Cl)c1Cl [Example 6]	rabbit intestinal mucosa ACAT (acylCoa:cholesterol acyltransferase)	Efficiency (%) mucosa (ACAT inhibition)	%	51
Nc1ccc(Sc2ccc(NC(=O)Nc3cccc(Cl)c3Cl)cc2)cc1 [Example 57]	rabbit intestinal mucosa ACAT (acylCoa:cholesterol acyltransferase)	Efficiency (%) mucosa (ACAT inhibition)	%	26
O=C(Nc1ccc(Sc2ccc([N+](=O)[O-])cc2)cc1)NC12CC3CC(CC(C3)C1)C2 [Example 51]	rabbit intestinal mucosa ACAT (acylCoa:cholesterol acyltransferase)	Efficiency (%) mucosa (ACAT inhibition)	%	56
O=C(Nc1ccncc1)Nc1ccc(Oc2ccc([N+](=O)[O-])cc2)cc1 [Example 20]	rabbit intestinal mucosa ACAT (acylCoa:cholesterol acyltransferase)	Efficiency (%) mucosa (ACAT inhibition)	%	17
Cc1ccc(NC(=O)Nc2ccc(Sc3ccc([N+](=O)[O-])cc3)cc2)cc1 [Example 38]	rabbit intestinal mucosa ACAT (acylCoa:cholesterol acyltransferase)	Efficiency (%) mucosa (ACAT inhibition)	%	32
O=C(Nc1ccc(Sc2ccc([N+](=O)[O-])cc2)cc1)Nc1ccc(Cl)cc1Cl [Example 33]	rabbit intestinal mucosa ACAT (acylCoa:cholesterol acyltransferase)	Efficiency (%) mucosa (ACAT inhibition)	%	16
CC(C)c1cccc(C(C)C)c1NC(=O)Nc1ccc(Sc2ccc([N+](=O)[O-])cc2)cc1 [Example 42]	rabbit intestinal mucosa ACAT (acylCoa:cholesterol acyltransferase)	Efficiency (%) mucosa (ACAT inhibition)	%	71
